assay-comment: Half life was determined after intravenous administration
Type: ADME, organism-based
measurement-parameters: in vivo
measured-metric: half-life (min)
The figure you give is taken to be in min; do not add the unit.

So, CC(=O)N1CCN(C(=O)/C=C/c2ccc(Sc3ccccc3C(C)C)c([N+](=O)[O-])c2)CC1 [A-286982] ? Its half-life was 24

###

study-system: Intercellular adhesion molecule (ICAM-1), Integrin alpha-L/beta-2 (Homo sapiens, UniProt P05107+P20701)
Sequence (P20701 whole entry): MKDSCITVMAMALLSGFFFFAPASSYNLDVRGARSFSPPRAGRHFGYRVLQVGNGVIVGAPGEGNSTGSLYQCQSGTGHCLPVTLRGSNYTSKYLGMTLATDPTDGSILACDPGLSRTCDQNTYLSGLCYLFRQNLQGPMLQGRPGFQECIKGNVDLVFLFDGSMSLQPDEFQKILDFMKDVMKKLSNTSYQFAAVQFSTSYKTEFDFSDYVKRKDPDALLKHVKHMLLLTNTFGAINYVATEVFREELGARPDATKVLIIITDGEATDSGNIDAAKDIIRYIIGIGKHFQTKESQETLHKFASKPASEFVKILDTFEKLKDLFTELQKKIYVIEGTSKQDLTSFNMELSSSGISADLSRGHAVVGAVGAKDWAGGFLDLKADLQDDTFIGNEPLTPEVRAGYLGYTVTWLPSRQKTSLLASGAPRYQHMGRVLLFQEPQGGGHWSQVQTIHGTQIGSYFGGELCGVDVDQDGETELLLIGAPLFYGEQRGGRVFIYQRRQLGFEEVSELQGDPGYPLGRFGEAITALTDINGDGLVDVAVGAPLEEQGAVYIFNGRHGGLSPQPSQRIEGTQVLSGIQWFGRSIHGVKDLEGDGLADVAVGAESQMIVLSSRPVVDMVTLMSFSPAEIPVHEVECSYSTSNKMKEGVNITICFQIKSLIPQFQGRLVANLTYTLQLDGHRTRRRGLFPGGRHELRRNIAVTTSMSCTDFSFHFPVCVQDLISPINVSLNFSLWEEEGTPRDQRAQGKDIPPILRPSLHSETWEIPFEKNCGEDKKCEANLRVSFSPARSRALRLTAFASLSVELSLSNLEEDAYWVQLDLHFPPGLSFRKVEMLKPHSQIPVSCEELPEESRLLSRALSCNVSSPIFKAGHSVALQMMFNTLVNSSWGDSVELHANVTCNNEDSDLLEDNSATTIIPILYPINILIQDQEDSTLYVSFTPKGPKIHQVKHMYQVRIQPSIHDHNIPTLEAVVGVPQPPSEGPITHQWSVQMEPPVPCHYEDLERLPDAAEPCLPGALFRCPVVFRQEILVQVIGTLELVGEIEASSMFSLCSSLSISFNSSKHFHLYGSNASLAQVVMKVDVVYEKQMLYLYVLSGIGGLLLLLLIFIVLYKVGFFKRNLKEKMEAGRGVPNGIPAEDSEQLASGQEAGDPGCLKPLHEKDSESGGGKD
Sequence (P05362 whole entry, further chain): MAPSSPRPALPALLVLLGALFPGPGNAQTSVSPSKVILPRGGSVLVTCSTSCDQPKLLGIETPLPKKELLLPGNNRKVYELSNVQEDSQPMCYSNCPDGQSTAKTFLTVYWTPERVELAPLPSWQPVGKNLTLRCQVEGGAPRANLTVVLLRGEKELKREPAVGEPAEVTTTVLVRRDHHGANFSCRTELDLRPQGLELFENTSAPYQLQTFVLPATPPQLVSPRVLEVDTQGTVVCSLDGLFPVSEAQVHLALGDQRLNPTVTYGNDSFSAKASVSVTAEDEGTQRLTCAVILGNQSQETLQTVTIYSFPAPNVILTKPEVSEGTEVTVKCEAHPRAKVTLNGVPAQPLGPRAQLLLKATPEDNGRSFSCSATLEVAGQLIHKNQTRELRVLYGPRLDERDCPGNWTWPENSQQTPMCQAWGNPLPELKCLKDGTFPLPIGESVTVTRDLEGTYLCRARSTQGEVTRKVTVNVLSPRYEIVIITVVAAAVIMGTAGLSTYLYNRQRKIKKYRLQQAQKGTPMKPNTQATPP
Sequence (P05107 whole entry): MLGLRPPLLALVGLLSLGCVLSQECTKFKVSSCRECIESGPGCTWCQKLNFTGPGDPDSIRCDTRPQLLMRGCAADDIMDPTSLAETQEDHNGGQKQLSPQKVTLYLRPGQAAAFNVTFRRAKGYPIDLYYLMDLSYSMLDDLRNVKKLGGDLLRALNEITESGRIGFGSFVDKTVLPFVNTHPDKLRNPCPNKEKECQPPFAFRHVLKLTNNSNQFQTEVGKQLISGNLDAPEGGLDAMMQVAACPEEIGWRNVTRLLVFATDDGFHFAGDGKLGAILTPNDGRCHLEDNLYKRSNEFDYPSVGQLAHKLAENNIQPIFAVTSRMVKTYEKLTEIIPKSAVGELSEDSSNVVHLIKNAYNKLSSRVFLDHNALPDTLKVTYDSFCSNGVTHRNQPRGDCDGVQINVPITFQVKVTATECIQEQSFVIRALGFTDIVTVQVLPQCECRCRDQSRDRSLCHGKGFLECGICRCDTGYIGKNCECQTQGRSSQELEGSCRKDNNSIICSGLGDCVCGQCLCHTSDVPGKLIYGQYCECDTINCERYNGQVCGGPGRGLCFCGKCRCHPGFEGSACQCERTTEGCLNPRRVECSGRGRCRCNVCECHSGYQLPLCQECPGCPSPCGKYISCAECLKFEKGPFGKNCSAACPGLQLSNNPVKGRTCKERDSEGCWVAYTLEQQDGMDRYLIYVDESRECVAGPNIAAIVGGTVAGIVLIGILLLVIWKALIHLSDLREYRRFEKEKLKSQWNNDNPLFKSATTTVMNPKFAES
assay-comment: Inhibition of JY-8 cell adhesion via leukocyte function associated antigen 1 (LFA-1) to ICAM-1, range (120-140)
Assay type: cell-based
measured-metric: IC50 (µM)
Quick reminder: number only, in µM, skip the unit.

// field: IC50; key: CCn1ccc2cccc(Sc3ccc(/C=C/C(=O)N4CCN(C(C)=O)CC4)cc3Cl)c21 ; value = 0.13

###

assay-comment: solubility in rats
Type: ADME
measured-metric: solubility (µg/mL)
Give the quantity in µg/mL, number only.

The compound identified as CC(=O)N1CCN(C(=O)/C=C/c2ccc(Sc3ccccc3C(C)C)c([N+](=O)[O-])c2)CC1 registered its solubility at 0.9

###

assay-comment: Mean Cmax in rats after 5 mg/kg oral dose, range (0.4-0.8)
Format: ADME, organism-based
Parameters: dose 5 mg/kg, route oral
measurement-parameters: rat, in vivo
measured-metric: Cmax (ng/mL)
Quick note: give the figure in ng/mL, leave out the unit.

Recorded Cmax (compound CC(=O)N1CCN(C(=O)/C=C/c2ccc(Sc3ccc4[nH]ccc4c3)c(Cl)c2)CC1 ): 600

###

assay-comment: Pharmacokinetic parameter was evaluated which is represented as AUC when administered orally a dose of 5 mg/kg; range (4.2-8.8)
Type: ADME, organism-based
Set-up: dose 5 mg/kg, route oral
measurement-parameters: in vivo, po
measured-metric: AUC (ng·h/mL)
Express your answer in ng·h/mL, writing the number without its unit.

response.value for CC(=O)N1CCN(C(=O)/C=C/c2ccc(Sc3ccc4[nH]ccc4c3)c(Cl)c2)CC1 (field: AUC) = 5800

###

study-system: Intercellular adhesion molecule (ICAM-1), Integrin alpha-L/beta-2 (Homo sapiens, UniProt P05107+P20701)
assay-comment: Inhibition of JY-8 cell adhesion via leukocyte function associated antigen 1 (LFA-1) to ICAM-1, range (30-60)
Assay type: cell-based
measured-metric: IC50
Reply with a number, then the unit it belongs to.

// recorded IC50 for CC(=O)N1CCN(C(=O)/C=C/c2ccc(Sc3ccc4c(c3)OCCO4)c(Cl)c2)CC1 : 0.04 µM

Notebook: COCCn1ccc2cc(Sc3ccc(/C=C/C(=O)N4CCN(C(C)=O)CC4)cc3Cl)ccc21 , IC50 read as 0.06 µM

###

study-system: Intercellular adhesion molecule (ICAM-1), Integrin alpha-L/beta-2 (Homo sapiens, UniProt P05107+P20701)
assay-comment: Inhibition of JY-8 cell adhesion via leukocyte function associated antigen 1 (LFA-1) to ICAM-1, range (370-470)
Type: cell-based
measured-metric: pIC50
Field pIC50 (float): negative decimal logarithm of the concentration in molar.

# pIC50 (molecule: CC(=O)N1CCN(C(=O)/C=C/c2ccc(Sc3ccc4[nH]cc(CN(C)C)c4c3)c(Cl)c2)CC1 ) is 6.38

###

study-system: Intercellular adhesion molecule (ICAM-1), Integrin alpha-L/beta-2 (Homo sapiens, UniProt P05107+P20701)
assay-comment: Inhibition of JY-8 cell adhesion via leukocyte function associated antigen 1 (LFA-1) to ICAM-1, range (90-100)
Type: cell-based
measured-metric: pIC50
Give only the number. pIC50 is defined as minus log10 of concentration in molar units.

compound CCOc1c(Sc2ccc(/C=C/C(=O)N3CCN(C(C)=O)CC3)cc2Cl)ccc2c1OCCO2 , pIC50 observed: 7.00
